# Target Or System: human orexin type 2 receptor (Homo sapiens, UniProt O43614)
# Construct: expressed in transfected cells
# Measurement Notes: Measurement of orexin type 2 receptor agonist activity (calcium fluorescence, Fluo-4 AM, FDSS) in CHO cells forcibly expressing human OX2 receptor
# Format: cell-based
# Setup Conditions: test compound 3 μM, DMSO = 0%, orexin A (human) 10 nM = 100%
Quick reference: 0X2R agonist activity (3 μM, %) of the listed items.
Numeric only. Scale: %

A selection of reference data follows.
CCS(=O)(=O)N[C@H]1CCc2ncn(C(C)C)c(=O)c2[C@H]1Cc1cccc(-c2cccc(F)c2F)c1 (racemic) [Example 85] : 98
CC(C)n1cnc2c(c1=O)[C@@H](Cc1cccc(-c3ccccc3)c1)[C@@H](NS(=O)(=O)CF)CC2 (relative stereo) [Example 145] : 92
CCn1ccc2c(c1=O)[C@@H](Cc1cccc(-c3ccccc3)c1)[C@@H](NS(C)(=O)=O)CC2 (racemic) [Example 47] : 96
[2H]C([2H])([2H])C([2H])(n1cnc2c(c1=O)C(Cc1cccc(-c3ccccc3)c1F)C(NS(=O)(=O)C1(F)CC1)CC2)C([2H])([2H])[2H] (stereo not drawn) [Example 213] : 105
CC(C)n1cnc2c(c1=O)[C@@H](Cc1cccc(-c3cccc(F)c3F)c1F)[C@@H](NS(=O)(=O)CF)CC2 [Example 196] : 91

Okay, now this molecule:
Q: State its 0X2R agonist activity (3 μM, %): Cc1cc(=O)n2c(c1C)CC[C@H](NS(C)(=O)=O)[C@@H]2Cc1cccc(-c2ccccc2)c1 (racemic) [Example 20]
Result: 113

* * *

# Target Or System: human orexin type 2 receptor (Homo sapiens, UniProt O43614)
# Construct: expressed in transfected cells
# Measurement Notes: Measurement of orexin type 2 receptor agonist activity (calcium fluorescence, Fluo-4 AM, FDSS) in CHO cells forcibly expressing human OX2 receptor
# Format: cell-based
# Setup Conditions: test compound 3 μM, DMSO = 0%, orexin A (human) 10 nM = 100%
Measured Parameter: 0X2R agonist activity (3 μM, %)
Numeric only. Scale: %

A selection of reference data follows.
CC(C)N1CNC2=C(C1=O)[C@@H](Cc1cccc(-c3ccccc3)c1)[C@@H](NS(C)(=O)=O)CC2(F)F (racemic) : 101
CC(C)n1cnc2c(c1=O)[C@@H](Cc1cccc(-c3cccc(C(F)F)c3F)c1F)[C@@H](NS(C)(=O)=O)CC2 (relative stereo) : 94
COC1(C(=O)N[C@H]2CCc3ccc(C)c(=O)n3[C@H]2Cc2cccc(-c3cccc(F)c3)c2F)CC1 (relative stereo) : 93
CN(C)c1ccc2n(c1=O)[C@@H](Cc1cccc(-c3ccccc3)c1)[C@@H](NS(C)(=O)=O)CC2 (racemic) : 100
CC(C)n1cnc2c(c1=O)[C@@H](Cc1ccc(F)c(-c3ccccc3)c1)[C@@H](NS(C)(=O)=O)CC2 (relative stereo) : 98

Okay, now this compound:
Q: State its 0X2R agonist activity (3 μM, %): CCn1ccc2c(c1=O)[C@@H](Cc1cccc(-c3cccc(F)c3)c1)[C@@H](NS(C)(=O)=O)CC2 (racemic)
Result: 102

* * *

Quick reference: 0X2R agonist activity (3 μM, %) of the listed items.
# Target Or System: human orexin type 2 receptor (Homo sapiens, UniProt O43614)
# Construct: expressed in transfected cells
# Measurement Notes: Measurement of orexin type 2 receptor agonist activity (calcium fluorescence, Fluo-4 AM, FDSS) in CHO cells forcibly expressing human OX2 receptor
# Assay type: cell-based
# Setup Conditions: test compound 3 μM, DMSO = 0%, orexin A (human) 10 nM = 100%
A complete answer gives the number and then names the unit.

A selection of reference data follows.
[2H]C([2H])([2H])C([2H])(n1cnc2c(c1=O)C(Cc1cccc(-c3ccccc3)c1F)C(NS(=O)(=O)C1CC1)CC2)C([2H])([2H])[2H] (stereo not drawn) : 99%
CC(C)n1cnc2c(c1=O)C(Cc1cccc(-c3ccccc3)c1)C(NS(=O)(=O)C1(F)CC1)CC2 (stereo not drawn) : 95%
Cc1ccc2n(c1=O)[C@@H](Cc1cccc(-c3ccccc3)c1)[C@@H](NS(C)(=O)=O)CC2 (relative stereo) : 101%
CCc1ccc(C[C@H]2[C@@H](NS(C)(=O)=O)CCc3ccc(C)c(=O)n32)cc1 (racemic) : 76%
CCc1ccc2n(c1=O)[C@@H](Cc1cccc(-c3ccccc3)c1F)[C@@H](NS(C)(=O)=O)CC2 (racemic) : 89%

Q: State its 0X2R agonist activity (3 μM, %): CCc1ccc2n(c1=O)[C@@H](Cc1cccc(-c3cccc(F)c3)c1F)[C@@H](NC(=O)C(=O)N(C)C)CC2 (relative stereo)
Result: 90%

* * *

# Target Or System: human orexin type 2 receptor (Homo sapiens, UniProt O43614)
# Construct: expressed in transfected cells
# Measurement Notes: Measurement of orexin type 2 receptor agonist activity (calcium fluorescence, Fluo-4 AM, FDSS) in CHO cells forcibly expressing human OX2 receptor
# Assay type: cell-based
# Setup Conditions: test compound 3 μM, DMSO = 0%, orexin A (human) 10 nM = 100%
Measured Parameter: 0X2R agonist activity (3 μM, %)
Numeric only. Scale: %

CC(C)n1cnc2c(c1=O)[C@@H](Cc1cc(F)cc(-c3ccccc3)c1)[C@@H](NS(C)(=O)=O)CC2 (relative stereo) : 103
CCn1ccc2c(c1=O)[C@@H](Cc1cccc(-c3cccc(C)c3F)c1)[C@@H](NS(C)(=O)=O)CC2 (racemic) : 98
Cc1ccc2n(c1=O)C(Cc1cccc(-c3cccc(F)c3)c1F)C(NC(=O)[C@@H]1CCCO1)CC2 (stereo in doubt) : 97
CC(C)n1cc2n(c1=O)[C@@H](Cc1cccc(-c3ccccc3)c1)[C@@H](NS(C)(=O)=O)CC2 (racemic) : 86

Q: State its 0X2R agonist activity (3 μM, %): CC(C)n1c(=O)c2c(n1C)CCC(NS(C)(=O)=O)C2Cc1cccc(-c2ccccc2)c1 (centres unmarked)
Result: 95

Q: State its 0X2R agonist activity (3 μM, %): Cn1ccc2c(c1=O)[C@@H](Cc1cccc(-c3ccccc3)c1)[C@@H](NS(C)(=O)=O)CC2 (racemic)
Result: 102

Q: State its 0X2R agonist activity (3 μM, %): CC(C)c1nn(C)c2c(c1=O)[C@@H](Cc1csc(-c3ccccc3)n1)[C@@H](NS(C)(=O)=O)C[C@H]2F (racemic)
Result: 93

Q: State its 0X2R agonist activity (3 μM, %): CCc1cccc(C[C@H]2[C@@H](NS(C)(=O)=O)CCc3ccc(CC)c(=O)n32)c1 (racemic)
Result: 90

Q: State its 0X2R agonist activity (3 μM, %): CCS(=O)(=O)N[C@H]1CCc2ncn(C(C)C)c(=O)c2[C@H]1Cc1cccc(-c2cccc(F)c2F)c1 [Example 200]
Result: 89

Q: State its 0X2R agonist activity (3 μM, %): CC(C)n1cnc2c(c1=O)[C@@H](Cc1cccc(-c3ccccc3)c1)[C@@H](NS(C)(=O)=O)CC2 (relative stereo)
Result: 95

Q: State its 0X2R agonist activity (3 μM, %): CCc1ccc2n(c1=O)C(Cc1cccc(-c3cccc(F)c3)c1F)C(NC(=O)C(=O)N(C)C)CC2 (racemic)
Result: 89

Q: State its 0X2R agonist activity (3 μM, %): CC(C)n1cnc2c(c1=O)[C@@H](Cc1cccc(-c3cccc(F)c3)c1)[C@@H](NS(=O)(=O)C1CC1)CC2
Result: 107

Q: State its 0X2R agonist activity (3 μM, %): CCc1ccc2n(c1=O)C(Cc1cccc(-c3ccccc3)c1)C(NS(C)(=O)=O)CC2 (racemic)
Result: 99

Q: State its 0X2R agonist activity (3 μM, %): CC(C)n1cnc2c(c1=O)[C@@H](Cc1cccc(-c3cccc(F)c3F)c1F)[C@@H](NS(C)(=O)=O)CC2 (relative stereo)
Result: 107

* * *

# Target Or System: human orexin type 2 receptor (Homo sapiens)
# Construct: expressed in transfected cells
# Sequence (O43614 1-444): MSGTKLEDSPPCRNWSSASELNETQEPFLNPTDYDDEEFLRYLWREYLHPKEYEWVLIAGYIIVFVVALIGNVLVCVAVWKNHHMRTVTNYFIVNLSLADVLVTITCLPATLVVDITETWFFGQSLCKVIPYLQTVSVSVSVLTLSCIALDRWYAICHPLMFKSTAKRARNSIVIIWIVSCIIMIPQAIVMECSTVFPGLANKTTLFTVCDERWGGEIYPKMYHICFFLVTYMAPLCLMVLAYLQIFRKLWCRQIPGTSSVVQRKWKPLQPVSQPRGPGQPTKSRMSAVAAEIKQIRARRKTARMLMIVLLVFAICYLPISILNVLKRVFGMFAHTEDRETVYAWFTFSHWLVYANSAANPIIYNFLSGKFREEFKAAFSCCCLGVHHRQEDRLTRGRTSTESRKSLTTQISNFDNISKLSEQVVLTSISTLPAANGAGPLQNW
# Measurement Notes: Measurement of orexin type 2 receptor agonist activity (calcium fluorescence, Fluo-4 AM, FDSS) in CHO cells forcibly expressing human OX2 receptor
# Assay type: cell-based
# Setup Conditions: test compound 3 μM, DMSO = 0%, orexin A (human) 10 nM = 100%
Measured Parameter: 0X2R agonist activity (3 μM, %)
Numeric only. Scale: %

A selection of reference data follows.
Cc1ccc2n(c1=O)[C@@H](Cc1cccc(-c3cccc(F)c3)c1)[C@@H](NS(C)(=O)=O)CC2 (relative stereo) : 94
Cc1ccc2n(c1=O)C(Cc1cccc(-c3cccc(F)c3)c1)C(NC(=O)[C@@H]1CCCO1)CC2 (mixture of isomers) [Example 26] : 101
CCS(=O)(=O)N[C@H]1CCc2ncn(C(C)C)c(=O)c2[C@H]1Cc1cccc(-c2cccc(F)c2)c1F : 87
CC(C)n1cnc2c(c1=O)C(Cc1cccc(-c3cccc(F)c3)c1)C(NS(C)(=O)=O)CC2 (centres unmarked) : 101

Q: State its 0X2R agonist activity (3 μM, %): Cn1cc2n(c1=O)[C@@H](Cc1cccc(-c3cc(F)cc(F)c3)c1)[C@@H](NS(C)(=O)=O)CC2 (racemic)
Result: 91

Q: State its 0X2R agonist activity (3 μM, %): Cc1ccc2n(c1=O)[C@@H](Cc1csc(-c3ccccc3)n1)[C@@H](NS(C)(=O)=O)CC2 (racemic)
Result: 92

Q: State its 0X2R agonist activity (3 μM, %): CC(C)n1cnc2c(c1=O)[C@@H](Cc1csc(-c3cccc(F)c3F)n1)[C@@H](NS(C)(=O)=O)CC2 (relative stereo)
Result: 100

Q: State its 0X2R agonist activity (3 μM, %): CCn1c(C)nc2c(c1=O)C(Cc1cccc(-c3ccccc3)c1)C(NS(C)(=O)=O)CC2 (racemic)
Result: 90

Where do the numbers come from? From patent US12071434B2.
